- TEST DETAILS: yeast display, Sf9 membrane polyspecificity reagent, FACS + sequencing; frameworks hold sequencing errors
QUANTITY NAME: polyreactivity (PSR sort gate)

Problem: Which polyreactivity (PSR sort gate) reading was recorded for the sequence QVQLVESGGGLVQAGGSLRLICAASGRTFRIYAMGWYRQEPGKDRQLVAAIRWSGGTTYYADSVKGRFTISRDYAKNTVYLQMNSLKPDDTSVYYCAADSTNRFDYWGQGTQVTVSS ?
Result: high polyreactivity

Problem: How about QVQLVESGGGLVQAGGSLRLSCAASGSIFRFYAMGWYRQAPGQERELVAAITSGGSTNYADSVKGRFTISRDNAKNTVYLQMNSLKPEDTAVYYCAAVLVYFFIYDYWGQGTQVTVSS ?
Result: low polyreactivity

Problem: How about QVQLVDSGGGLVQAGGSLRLSCPASGSTFLVYAMGWYRQAPGKERELVAVITYSTVRTYYADSVKGRFTISRDNAKNTVYLQMNSLKPEDTAVYHCNADKEFAVLGQGMDFWGQGTQVTVSS ?
Result: low polyreactivity

Problem: How about QVQLVESGGGLVQAGGSLRLSCAASGNIFKYYAMGWYRQAPGKERELVAAISWGGSRTYYADSVKGRFTISRDNAKNTVYFQMNILKPEDSAVYYCAAAPRYSWTSVPRYDYWGLGTQVTVSS ?
Result: high polyreactivity

// next item, polyreactivity (PSR sort gate) requested
Problem: Which polyreactivity (PSR sort gate) reading was recorded for the sequence QVHLVESGGGLVQAGGSLRLSCAASGRIFPKNGMGWYRQAPGTERDLVAAITSGTSTYYADSVKGRFTISRDNAKNTVYLQMNRLKPEDTAVYYCAARPTDGSGWPYRWTSDYWGQGTQVTVSS ?
Result: low polyreactivity
